molecular target: T1, human C5 R885C-mmh (human, UniProt P01031 19-1676); test: SPR, mAb captured via anti-hFc, 25C
T1 construct: also called human C5 variant R885C
t1/2 values by entry

| binder | t1/2 |
| --- | --- |
| H4H12164P (antibody, human IgG4, V domains shown, Human IgG4 Fc with S108P hinge mutation (H4H)) VH: EVQLVESGGGLVRSGGSLRLSCAASGFTFNRYAMTWVRQAPGKGLEWVSAISGSGSSTYYTDSVKGRFTISRDNSKNSVDLQMHSLRVEDTAIYYCARGTTVTTGYGMDVWGQGTTVTVSS VL: DIQMTQSPSSLSASVGDRVTFTCQASQDITNSLNWYQQKPGRAPKLLIYDASYLKAGVPSRFSGSGSGTDFTFTISSLQPEDIATYYCQQYDDLPYTFGQGTKLEIK | 63 min |
| H4H12163P (antibody, human IgG4, V domains shown, Human IgG4 Fc with S108P hinge mutation (H4H)) VH: EVQLVESGGDLVQPGGSLRLSCAASGFTFSSYAMNWVRQGPGKGLEWVSAISGRGDSTYYADSVKGRLTISRDNSKNTLYLQMNSLRAEDTAVYYCVKEGEQLVYWYFDLWGRGTLVTVSS VL: DIQMTQSPSSLSASVGDRVTITCRASQTISNFLHWYQQKPGKAPKLLIYAASSLQSGVPSRFSGSGSGTDFTLTISSLQPEDFSTYFCQQSYTTPLTFGGGTKVEIK | 27 min |
| H4H11683N (antibody, V domains shown, also called H2M11683N) VH: QVQLVESGGGVVQPGRSLRLSCVASGFTFSSYGIHWVRQAPGKGLEWVAVIWDDGNNINYSDSVKGRFIISRDNSRKTVYLQMNSLRGEDTAVYYCARDAPIAPVPDYWGQGTLVTVSS VL: DIQMTQSPSTLSASVGDRVTITCRASQSISSWLAWYQQKPGKAPKLLIYKASSLDTGVPSRFSGSGSGTEFTLTISSLQPDDFATYYCQQYNTYSYTFGLGTKLEIK | 48 min |
